# ASSAY PROTOCOL: AP1 Signaling Pathway (AID 357);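 note: ME-180 reporter cells stimulated with EGF at its EC50 level; % is set by controls: 0 for no effect and ±100 for the full control effect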
# RECORDED CONDITIONS: ME-180 (cervical carcinoma) AP-1-bla reporter, EGF-induced, beta-lactamase ratio, 5 h; at 17.2 µM (top of the series) unless noted
# Protocol: NCGC Assay Overview: Activator protein-1 (AP-1), a transcription factor, plays an important role in tumor genesis by regulating genes involved in cell proliferation, differentiation, apoptosis, and angiogenesis. AP-1 activity is induced by a complex network of signaling pathways that involves extracellular signals, such as growth factors. […] Library compounds were measured for their ability to modulate positively or negatively the action of EC50 EGF on reporter gene activity. […]
Records with an inconclusive call do not appear.
activity change, negative = inhibition: recorded values
Answer with a number only, understood to be in %.

Give the measured activity change, negative = inhibition for "O=C(NCCOCCOCCNC(=O)c1cccnc1)c1cccnc1"
-1.69

---

# Test system: HB3
# ASSAY PROTOCOL: qHTS profiling for inhibitors of Plasmodium falciparum proliferation (AID 504749); note: nearly all actives have a fitted effect of over 60% in size
# RECORDED CONDITIONS: P. falciparum in erythrocytes, SYBR Green DNA, 72 h; series mostly up to 28.7 µM
# Description: NIH National Institute of Allergy and Infectious Diseases [NIAID] NIH Chemical Genomics Center [NCGC] […] Because mature erythrocytes lack DNA, only Plasmodium-derived DNA is detected. NCGC Assay Protocol Summary: The SYBR Green viability assay was adapted from a method described previously (Plouffe et al., 2008). […] The following morning, fluorescence intensity at 485(14) nm excitation and 535(25) nm emission wavelengths was measured on an EnVision (Perkin Elmer) plate reader. […]
Inconclusive results are not listed. The source made the active and inactive calls. The call rests on the fitted dose curve; in most records, active means well fitted inhibition curve with a large enough effect; inconclusive means small, poorly fitted or top-dose-only effect; inactive means flat fitted curve, though single readings scatter.
Result category, one only: active, inactive

COMPOUND	QUALITATIVE LABEL
O=C(O)C[CH2][Ge](=[O])[O][Ge](=[O])[CH2]CC(=O)O	inactive
CO[C@H]1C[C@@H]2CC[C@@H](C)[C@@](O)(O2)C(=O)C(=O)N2CCCC[C@H]2C(=O)O[C@H]([C@H](C)C[C@@H]2CC[C@@H](O)[C@H](OC)C2)CC(=O)[C@H](C)/C=C(\C)[C@@H](O)[C@@H](OC)C(=O)[C@H](C)C[C@H](C)/C=C/C=C/C=C/1C	active

Hello, I am checking results. What call was entered for C[C@]12CC[C@@H]3c4ccc(O)cc4CC[C@H]3[C@@H]1CCC2OC(=O)CCC1CCCC1 (stereo partly drawn) ?
inactive

---

# Tested on: CP250
# ASSAY PROTOCOL: qHTS profiling for inhibitors of Plasmodium falciparum proliferation (AID 504749); note: nearly all actives have a fitted effect of over 60% in size
# RECORDED CONDITIONS: P. falciparum in erythrocytes, SYBR Green DNA, 72 h; series mostly up to 28.7 µM
Records with an inconclusive call do not appear. Active and inactive are the calls of the source. The call rests on the fitted dose curve; in most records, active means well fitted inhibition curve with a large enough effect; inconclusive means small, poorly fitted or top-dose-only effect; inactive means flat fitted curve, though single readings scatter.
Result category, one only: active, inactive

In [3]: df
Out[3]:
                   compound  target_or_test_system  qualitative_label
0  C=C(NCc1ccccc1)c1ccccc1O                  CP250           inactive

Hello, I am checking results. What call was entered for Cc1cn([C@H]2CC(F)[C@@H](CO)O2)c(=O)[nH]c1=O (stereo not given in full) ?
inactive

Hello, I am checking results. What call was entered for OC[C@@H](O)C(O[C@@H]1O[C@@H](CO)[C@H](O)[C@H](O)[C@H]1O)[C@H](O)[C@@H](O)CO (stereo not given in full) ?
inactive

Hello, I am checking results. What call was entered for "CN(C)CC/C=C1\c2ccccc2COc2ccc(CC(=O)O)cc21" ?
inactive

Hello, I am checking results. What call was entered for "C=C1[C@@H]2CC[C@H](C2)C1(C)C" ?
inactive

---

# ASSAY PROTOCOL: Cell Viability - LYMP1-002 - Assay at 40 hr (AID 994); note: nearly all actives have a fitted effect of over 60% in size
# RECORDED CONDITIONS: LYMP1-002 lymphoblastoid cell viability; series mostly up to 92.2 µM
# Excerpt: NIH Chemical Genomics Center [NCGC] NIH Molecular Libraries Screening Centers Network [MLSCN] National Institutes of Environmental Health Sciences [NIEHS] National Toxicology Program [NTP] We have developed a 1536-well cell-based assay for quantitative high throughput screening (qHTS) against a number of cell lines to determine in vitro cytotoxicity of small molecules. […] 8. Detection; Luminescence; Viewlux plate reader […]
Records with an inconclusive call do not appear. Active and inactive are the calls of the source. Calls come from the whole dose curve; as a rule, active = well fitted cell-killing curve with a large enough effect; inconclusive = small, poorly fitted or top-dose-only effect; inactive = flat fitted curve, though single readings scatter.
Result category, one only: active, inactive

Hello, I am checking results. What call was entered for "Oc1ccc2cc(SSc3ccc4cc(O)ccc4c3)ccc2c1" ?
active

Hello, I am checking results. What call was entered for "Nc1ccc2cc3ccccc3cc2c1" ?
inactive

Hello, I am checking results. What call was entered for "Cc1cc(O)c(C(C)(C)C)cc1Sc1cc(C(C)(C)C)c(O)cc1C" ?
active

---

# System: CP315
# ASSAY PROTOCOL: qHTS profiling for inhibitors of Plasmodium falciparum proliferation (AID 504749); note: nearly all actives have a fitted effect of over 60% in size
# RECORDED CONDITIONS: P. falciparum in erythrocytes, SYBR Green DNA, 72 h; series mostly up to 28.7 µM
Results filed as inconclusive are left out. Calls of active or inactive are those of the source. Calls come from the whole dose curve; as a rule, active = well fitted inhibition curve with a large enough effect; inconclusive = small, poorly fitted or top-dose-only effect; inactive = flat fitted curve, though single readings scatter.
Result category, one only: active, inactive

COMPOUND	QUALITATIVE LABEL
OCC(CO)NC1C[C@](O)(CO)[C@@H](O)[C@H](O)[C@H]1O (stereo not given in full)	inactive

Hello, I am checking results. What call was entered for CC(=O)NC1[C@H]([C@H](O)[C@H](O)CO)OC(C(=O)O)=C[C@H]1N=C(N)N (stereo not given in full) ?
inactive

Hello, I am checking results. What call was entered for Cc1ccc(S(=O)(=O)NC(=O)NC(C)Cc2ccccc2)cc1 (stereo not given) ?
inactive

Hello, I am checking results. What call was entered for CCCCC(=O)O[C@]1(C(=O)CO)CCC2C3CCC4=CC(=O)CCC4(C)C3C(O)CC21C (stereo not given in full) ?
inactive

Hello, I am checking results. What call was entered for "CN(C)CC/C=C1\c2ccccc2COc2ccc(CC(=O)O)cc21" ?
inactive

---

# TARGET OR TEST SYSTEM: Tyrosyl-DNA phosphodiesterase 1 (Homo sapiens) (UniProt Q9NUW8)
# Sequence (Q9NUW8 whole entry, looked up): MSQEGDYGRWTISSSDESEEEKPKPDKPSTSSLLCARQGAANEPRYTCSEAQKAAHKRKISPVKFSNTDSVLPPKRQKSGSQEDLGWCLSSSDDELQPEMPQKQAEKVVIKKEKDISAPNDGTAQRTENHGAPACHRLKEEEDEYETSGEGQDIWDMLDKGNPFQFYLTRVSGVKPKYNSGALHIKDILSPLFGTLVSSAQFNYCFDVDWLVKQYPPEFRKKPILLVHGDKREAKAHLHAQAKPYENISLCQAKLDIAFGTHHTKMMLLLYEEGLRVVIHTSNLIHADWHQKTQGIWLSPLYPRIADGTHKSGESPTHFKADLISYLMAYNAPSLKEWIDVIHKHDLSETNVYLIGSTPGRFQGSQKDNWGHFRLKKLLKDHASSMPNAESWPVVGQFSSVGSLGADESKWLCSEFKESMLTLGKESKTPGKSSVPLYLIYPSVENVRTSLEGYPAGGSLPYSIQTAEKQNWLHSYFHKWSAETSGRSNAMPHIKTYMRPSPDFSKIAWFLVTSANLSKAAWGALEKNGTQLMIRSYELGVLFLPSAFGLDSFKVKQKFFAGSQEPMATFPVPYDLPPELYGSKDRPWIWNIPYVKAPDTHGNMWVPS
# ASSAY PROTOCOL: Confirmation Assay for Inhibitors of Tyrosyl-DNA Phosphodiesterase (TDP1) (AID 489007); note: potency is the fitted concentration of half-maximal effect; nearly all actives have a fitted effect of over 40% in size
# RECORDED CONDITIONS: recombinant human TDP1 enzymatic activity, dose-response
Inconclusive results are not listed. Calls of active or inactive are those of the source. Calls follow the shape of the dose curve; as a rule, active = well fitted inhibition curve with a large enough effect; inconclusive = small, poorly fitted or top-dose-only effect; inactive = flat fitted curve, though single readings scatter.
READOUT KIND: Potency

Examples with answers:
>>> print(df.to_string())
                                   compound  readout_kind  reported_measurement
0  Cc1ccc(NC(=O)CN2C(=O)N/C(=C/c3cccn3-c3ccc(C(=O)O)cc3)C2=O)cc1       Potency     0.282 µM (active)
1               CCC(=O)c1ccc(CCCCCC(=O)O)s1       Potency      31.6 µM (active)
2  Cc1cc(N2C(=O)C3C4C=CC(C4)C3C2=O)ccc1NC(=O)c1cccs1 (stereo unspecified)       Potency      70.8 µM (active)
3  C=C1c2cccc(OC)c2O[C@H](C(=O)OCC)[C@@H]1CCCCCC       Potency    0.0251 µM (active)
4  CCn1c(SCc2nc3sc(C(=O)O)c(C)c3c(=O)[nH]2)nc2ccccc21       Potency      3.16 µM (active)

Give the measured Potency for "O=C(CSc1nccc(=O)[nH]1)NCc1ccco1"
31.6 µM (active)

Give the measured Potency for "Cc1ccc(CNC(=O)c2ccc(-n3cccc3)cc2)cc1"
12.6 µM (active)

Give the measured Potency for "O=C(CCc1n[nH]c(=O)[nH]c1=O)N/N=C/c1ccco1"
31.6 µM (active)

Give the measured Potency for "COc1ccc(-n2c(NC(=O)c3ccc(Br)o3)c(C#N)c3nc4ccccc4nc32)cc1"
100 µM (active)

---

# Tested on: CP250
# ASSAY PROTOCOL: qHTS profiling for inhibitors of Plasmodium falciparum proliferation (AID 504749); note: nearly all actives have a fitted effect of over 60% in size
# RECORDED CONDITIONS: P. falciparum in erythrocytes, SYBR Green DNA, 72 h; series mostly up to 28.7 µM
Records with an inconclusive call do not appear. Active and inactive are the calls of the source. Calls follow the shape of the dose curve; as a rule, active = well fitted inhibition curve with a large enough effect; inconclusive = small, poorly fitted or top-dose-only effect; inactive = flat fitted curve, though single readings scatter.
Result category, one only: 1.0 (active), 0.0 (inactive)

Known results for compounds:
COMPOUND	QUALITATIVE LABEL
CC1(C(=O)O)CCC2(C)CCC3(C)C(=CC(=O)C4C5(C)CCC(O)C(C)(C)C5CCC43C)C2C1 (stereo unspecified)	0.0
CCCC(=O)Nc1c(I)cc(I)c(C[C@H](CC)C(=O)O)c1I	0.0
CCCCCOC(=O)Nc1nc(=O)n(C2O[C@H](C)[C@@H](O)[C@@H]2O)cc1F (stereo partly specified)	0.0
CC1(C)CC1C(=O)N/C(=C/CCCCSCC(N)C(=O)O)C(=O)O (stereo unspecified)	0.0
O=C1NC(=O)C2C3C=CC(C3)C12 (stereo unspecified)	0.0

Now let's try a different one.
Hello, I am checking results. What call was entered for "Cc1ccc(Nc2ncccc2C(=O)O)cc1C" ?
0.0
